molecular target: Angiotensin-converting enzyme (Homo sapiens, UniProt P12821); assay: Inhibition of human ACE N-terminal domain using Cbz-Phe-His-Leu-OH substrate
Sequence (P12821 whole entry, the tested form may be a part): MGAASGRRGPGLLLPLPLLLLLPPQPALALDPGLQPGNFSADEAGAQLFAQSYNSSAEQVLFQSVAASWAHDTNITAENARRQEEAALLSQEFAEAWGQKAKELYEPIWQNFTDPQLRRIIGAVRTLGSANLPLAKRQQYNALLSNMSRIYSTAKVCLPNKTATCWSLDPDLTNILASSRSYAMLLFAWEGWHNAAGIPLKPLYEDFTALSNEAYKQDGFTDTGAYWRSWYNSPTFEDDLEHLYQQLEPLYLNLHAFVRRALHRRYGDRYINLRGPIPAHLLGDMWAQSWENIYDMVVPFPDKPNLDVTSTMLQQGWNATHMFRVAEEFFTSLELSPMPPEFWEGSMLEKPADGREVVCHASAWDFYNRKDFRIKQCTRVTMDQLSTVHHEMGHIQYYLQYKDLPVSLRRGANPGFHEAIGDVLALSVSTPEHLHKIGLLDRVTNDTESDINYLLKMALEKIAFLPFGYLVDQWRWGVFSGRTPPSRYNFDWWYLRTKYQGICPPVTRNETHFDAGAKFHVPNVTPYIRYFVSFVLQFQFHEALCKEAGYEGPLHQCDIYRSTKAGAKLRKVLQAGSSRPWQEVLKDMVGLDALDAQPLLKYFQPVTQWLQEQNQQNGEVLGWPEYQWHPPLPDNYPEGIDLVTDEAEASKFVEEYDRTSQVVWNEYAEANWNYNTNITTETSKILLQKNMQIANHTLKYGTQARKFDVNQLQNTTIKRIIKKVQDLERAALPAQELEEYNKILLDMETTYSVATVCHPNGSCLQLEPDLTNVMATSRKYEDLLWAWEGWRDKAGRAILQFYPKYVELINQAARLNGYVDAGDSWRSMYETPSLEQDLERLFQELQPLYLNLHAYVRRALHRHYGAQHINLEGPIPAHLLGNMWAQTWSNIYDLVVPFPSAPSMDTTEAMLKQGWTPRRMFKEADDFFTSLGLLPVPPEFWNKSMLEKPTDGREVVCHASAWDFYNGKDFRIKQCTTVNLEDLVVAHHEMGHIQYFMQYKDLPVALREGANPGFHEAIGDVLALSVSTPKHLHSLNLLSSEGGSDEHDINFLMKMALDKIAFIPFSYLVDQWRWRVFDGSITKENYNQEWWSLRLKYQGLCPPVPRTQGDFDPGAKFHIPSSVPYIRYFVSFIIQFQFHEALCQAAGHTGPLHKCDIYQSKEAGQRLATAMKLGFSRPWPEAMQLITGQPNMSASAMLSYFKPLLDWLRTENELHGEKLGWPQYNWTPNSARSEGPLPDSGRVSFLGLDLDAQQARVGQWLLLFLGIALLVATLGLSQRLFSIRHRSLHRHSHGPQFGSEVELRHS
pIC50: −log10 of the molar value.
measured_attribute: pIC50

# annotated cases, reported pIC50 shown
>  <smiles_input>
CC[C@H](C)[C@H](NC(C)=O)C(=O)N[C@@H](Cc1ccc(O)cc1)C(=O)N[C@@H](Cc1ccc(O)cc1)P(=O)(O)O

>  <pIC50>
6.96

$$$$
>  <smiles_input>
CN[C@H](C(=O)N[C@@H](Cc1ccc(O)cc1)C(=O)N[C@@H](Cc1ccc(O)cc1)P(=O)(O)O)C(C)C

>  <pIC50>
7.28

$$$$

(1) CC[C@H](C)[C@H](NC(C)=O)C(=O)N[C@@H](CC(C)C)C(=O)N[C@@H](Cc1ccc(O)cc1)P(=O)(O)O
(2) CN[C@H](C(=O)N[C@@H](Cc1ccccc1)C(=O)N[C@@H](Cc1ccc(O)cc1)P(=O)(O)O)C(C)C
# input Name the one with the greater pIC50 value, either 1 or 2 as given. Lab log: write the label of the selected item as the result.
# output 1
(1: 7.12, 2: 6.66)

----------
biological target: Angiotensin-converting enzyme (Oryctolagus cuniculus)
Sequence (P12822 whole entry): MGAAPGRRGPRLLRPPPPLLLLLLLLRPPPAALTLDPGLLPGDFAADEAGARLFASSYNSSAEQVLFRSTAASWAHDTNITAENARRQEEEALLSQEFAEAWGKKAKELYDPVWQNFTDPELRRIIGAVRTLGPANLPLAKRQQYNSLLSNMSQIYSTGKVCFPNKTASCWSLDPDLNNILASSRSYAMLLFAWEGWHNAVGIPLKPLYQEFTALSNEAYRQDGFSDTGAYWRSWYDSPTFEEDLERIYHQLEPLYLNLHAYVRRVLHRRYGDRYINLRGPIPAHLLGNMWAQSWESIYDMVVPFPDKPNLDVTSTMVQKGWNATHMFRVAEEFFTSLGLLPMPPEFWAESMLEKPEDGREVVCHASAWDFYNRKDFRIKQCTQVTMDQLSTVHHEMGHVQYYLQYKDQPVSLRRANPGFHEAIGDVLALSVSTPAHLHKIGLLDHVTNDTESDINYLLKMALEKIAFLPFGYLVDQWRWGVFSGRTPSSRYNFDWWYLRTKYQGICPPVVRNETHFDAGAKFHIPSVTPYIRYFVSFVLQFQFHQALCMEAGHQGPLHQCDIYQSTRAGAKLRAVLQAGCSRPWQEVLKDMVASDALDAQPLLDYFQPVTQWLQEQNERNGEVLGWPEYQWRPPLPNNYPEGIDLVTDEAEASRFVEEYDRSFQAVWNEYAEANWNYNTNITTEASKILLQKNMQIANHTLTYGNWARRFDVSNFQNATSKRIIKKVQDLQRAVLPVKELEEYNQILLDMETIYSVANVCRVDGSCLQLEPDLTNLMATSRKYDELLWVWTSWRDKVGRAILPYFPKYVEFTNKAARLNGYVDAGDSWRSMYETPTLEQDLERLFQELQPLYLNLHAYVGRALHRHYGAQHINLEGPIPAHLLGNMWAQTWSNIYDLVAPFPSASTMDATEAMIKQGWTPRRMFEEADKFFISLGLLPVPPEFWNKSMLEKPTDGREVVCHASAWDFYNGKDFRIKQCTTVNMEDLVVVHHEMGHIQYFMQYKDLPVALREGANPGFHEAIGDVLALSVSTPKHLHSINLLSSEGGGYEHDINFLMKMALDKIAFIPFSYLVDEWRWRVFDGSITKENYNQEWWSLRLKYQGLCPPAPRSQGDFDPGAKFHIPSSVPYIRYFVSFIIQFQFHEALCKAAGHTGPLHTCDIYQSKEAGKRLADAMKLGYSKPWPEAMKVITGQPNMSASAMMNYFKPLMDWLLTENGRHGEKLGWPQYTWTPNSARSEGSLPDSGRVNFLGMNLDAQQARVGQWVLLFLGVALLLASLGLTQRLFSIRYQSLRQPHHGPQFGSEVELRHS
measured_attribute: IC50 (nM)

(A) CC[C@H](C)[C@H](NC(C)=O)C(=O)N[C@@H](Cc1ccc(O)cc1)C(=O)N[C@@H](Cc1ccc(O)cc1)P(=O)(O)O
(B) CN[C@H](C(=O)N[C@@H](Cc1ccc(O)cc1)C(=O)N[C@@H](Cc1ccc(O)cc1)P(=O)(O)O)C(C)C
(C) CC[C@H](C)[C@H](NC(C)=O)C(=O)N[C@@H](CCC(=O)O)C(=O)N[C@@H](Cc1ccc(O)cc1)P(=O)(O)O
# input Sort the 3 molecules by IC50; largest first, smallest last. Your task in answering is to list the labels in the requested order.
# output C, B, A
(C: 5200 nM, B: 140 nM, A: 25 nM)

----------
experiment: Inhibition of Schwanella oneidensis dipeptidyl carboxypeptidase assessed as FAPGG substrate hydrolysis
measured_attribute: IC50 (µM)
Give just the number in µM; leave the unit off.

# input Return reported IC50. Input compound: CC[C@H](C)[C@H](NC(C)=O)C(=O)N[C@@H](Cc1ccc(O)cc1)C(=O)N[C@@H](Cc1ccc(O)cc1)P(=O)(O)O
# output 11

----------
target: Angiotensin-converting enzyme (Homo sapiens); assay: Inhibition of human ACE C-terminal domain using Cbz-Phe-His-Leu-OH substrate
pIC50: −log10 of the molar value.
measured_attribute: pIC50

>  <smiles_input>
CC[C@H](C)[C@H](NC(C)=O)C(=O)N[C@@H](Cc1ccc(O)cc1)C(=O)N[C@@H](Cc1ccc(O)cc1)P(=O)(O)O

>  <pIC50>
7.96

$$$$

(I) CN[C@H](C(=O)N[C@@H](Cc1ccccc1)C(=O)N[C@@H](Cc1ccc(O)cc1)P(=O)(O)O)C(C)C
(II) CC[C@H](C)[C@H](NC(C)=O)C(=O)N[C@@H](CC(C)C)C(=O)N[C@@H](Cc1ccc(O)cc1)P(=O)(O)O
(III) CN[C@H](C(=O)N[C@@H](Cc1ccc(O)cc1)C(=O)N[C@@H](Cc1ccc(O)cc1)P(=O)(O)O)C(C)C
# input Sort ascending by pIC50. Your task in answering is to list the labels in the requested order.
# output I, III, II
(I: 6.23, III: 7.27, II: 7.92)

----------
biological target: Dipeptidyl carboxypeptidase (Escherichia coli (strain K12)); assay: Inhibition of Escherichia coli dipeptidyl carboxypeptidase assessed as FAPGG substrate hydrolysis
Sequence (P24171 whole entry): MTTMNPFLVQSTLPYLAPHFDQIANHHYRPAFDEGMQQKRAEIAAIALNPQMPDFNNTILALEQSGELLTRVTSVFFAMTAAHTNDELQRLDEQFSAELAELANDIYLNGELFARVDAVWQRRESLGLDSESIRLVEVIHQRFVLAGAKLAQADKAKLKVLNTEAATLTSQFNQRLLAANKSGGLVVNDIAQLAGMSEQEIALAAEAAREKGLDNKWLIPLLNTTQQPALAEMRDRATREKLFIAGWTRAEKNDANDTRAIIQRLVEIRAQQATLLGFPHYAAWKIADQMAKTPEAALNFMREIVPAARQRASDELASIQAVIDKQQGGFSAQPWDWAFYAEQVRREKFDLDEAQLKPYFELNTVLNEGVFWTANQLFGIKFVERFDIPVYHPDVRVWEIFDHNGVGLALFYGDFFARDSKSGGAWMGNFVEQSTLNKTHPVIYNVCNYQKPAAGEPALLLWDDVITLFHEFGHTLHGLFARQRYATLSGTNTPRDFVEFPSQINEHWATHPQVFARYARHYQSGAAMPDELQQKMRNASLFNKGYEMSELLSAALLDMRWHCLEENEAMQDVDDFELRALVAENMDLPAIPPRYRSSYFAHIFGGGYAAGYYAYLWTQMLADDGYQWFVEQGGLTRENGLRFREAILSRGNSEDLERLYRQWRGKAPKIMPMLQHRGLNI
measured_attribute: pIC50
Scale note: pIC50 = -log10(concentration in M).

# input Return reported pIC50. Input compound: CC[C@H](C)[C@H](NC(C)=O)C(=O)N[C@@H](Cc1ccc(O)cc1)C(=O)N[C@@H](Cc1ccc(O)cc1)P(=O)(O)O
# output 3.82

----------
target: Angiotensin-converting enzyme (Homo sapiens); test: Inhibition of human ACE C-terminal domain using Cbz-Phe-His-Leu-OH substrate
measured_attribute: Ki (µM)

(I) CC[C@H](C)[C@H](NC(C)=O)C(=O)N[C@@H](CC(C)C)C(=O)N[C@@H](Cc1ccc(O)cc1)P(=O)(O)O
(II) CC[C@H](C)[C@H](NC(C)=O)C(=O)N[C@@H](Cc1ccc(O)cc1)C(=O)N[C@@H](Cc1ccc(O)cc1)P(=O)(O)O
# input Could you tell me which of these two has the smaller Ki figure? First: I Second: II Lab log: write the label of the selected item as the result.
# output II

----------
target: Angiotensin-converting enzyme (Homo sapiens, UniProt P12821); assay: Inhibition of human ACE N-terminal domain using Cbz-Phe-His-Leu-OH substrate
measured_attribute: Ki (nM)

(A) CC[C@H](C)[C@H](NC(C)=O)C(=O)N[C@@H](Cc1ccc(O)cc1)C(=O)N[C@@H](Cc1ccc(O)cc1)P(=O)(O)O
(B) CC[C@H](C)[C@H](NC(C)=O)C(=O)N[C@@H](CC(C)C)C(=O)N[C@@H](Cc1ccc(O)cc1)P(=O)(O)O
# input Name the one with the greater Ki value, either A or B as given. Lab log: write the label of the selected item as the result.
# output A
